These data points were gathered from patent US7553823B2.

- SYSTEM NAME: A2A receptor (Sus scrofa, UniProt K9IW67)
- Sequence (K9IW67 1-409): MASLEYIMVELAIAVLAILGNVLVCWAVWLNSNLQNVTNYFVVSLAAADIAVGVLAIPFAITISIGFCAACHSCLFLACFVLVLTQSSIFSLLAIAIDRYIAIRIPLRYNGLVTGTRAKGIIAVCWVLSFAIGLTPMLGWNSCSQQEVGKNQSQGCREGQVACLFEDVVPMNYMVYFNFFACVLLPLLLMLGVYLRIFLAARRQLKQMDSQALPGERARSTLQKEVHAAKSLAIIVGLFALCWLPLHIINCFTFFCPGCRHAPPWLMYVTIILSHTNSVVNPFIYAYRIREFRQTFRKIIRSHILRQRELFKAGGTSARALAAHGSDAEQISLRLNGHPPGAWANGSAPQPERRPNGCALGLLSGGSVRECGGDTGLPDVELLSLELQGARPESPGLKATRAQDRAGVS
- ASSAY TEXT: Affinity for the A2A receptor in a pig striatum membrane prep (displacement of tritiated ZM 241385)
- Type: binding
- MEASUREMENT PARAMETERS: pig striatal membranes, tritiated ZM 241385 2 nM, 23 C 2 h; read-out: A2a Ki
OBSERVATION TYPE: Ki (µM)
Give the value, in units of µM, as a plain number.

Examples with answers:
COMPOUND	Ki, µM
CC(C)(C)c1ccc(Cn2cc(-c3nc(N)c4ncn([C@@H]5O[C@H](CO)[C@@H](O)[C@H]5O)c4n3)cn2)cc1 [Compound 22]	7.68
CCCCCn1cc(-c2nc(N)c3ncn([C@@H]4O[C@H](CO)[C@@H](O)[C@H]4O)c3n2)cn1 [Compound 18]	7.09

Lab note: next compound to report on.
Could you share what Ki was measured for Nc1nc(-c2cnn(CCCc3ccccc3)c2)nc2c1ncn2C1O[C@H](CO)[C@@H](O)[C@H]1O (stereo partly drawn) [Compound 21] , tested on A2A receptor (Sus scrofa, UniProt K9IW67)?
6.13

###

- SYSTEM NAME: A2A AdoR (Rattus norvegicus, UniProt P30543)
- Sequence (P30543 whole entry, the tested form may be a part): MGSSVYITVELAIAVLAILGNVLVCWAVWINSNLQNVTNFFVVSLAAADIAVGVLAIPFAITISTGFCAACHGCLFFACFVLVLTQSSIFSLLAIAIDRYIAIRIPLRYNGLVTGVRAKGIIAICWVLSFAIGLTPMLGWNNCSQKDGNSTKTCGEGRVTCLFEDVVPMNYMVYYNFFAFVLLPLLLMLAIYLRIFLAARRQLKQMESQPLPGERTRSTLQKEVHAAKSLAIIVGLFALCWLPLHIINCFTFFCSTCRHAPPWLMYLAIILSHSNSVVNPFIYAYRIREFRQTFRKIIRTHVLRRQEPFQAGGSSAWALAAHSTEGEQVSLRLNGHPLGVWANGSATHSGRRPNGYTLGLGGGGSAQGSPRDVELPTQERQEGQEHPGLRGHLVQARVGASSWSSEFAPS
- ASSAY TEXT: Increase of coronary conductance in rat isolated perfused hearts
- MEASUREMENT PARAMETERS: EC50 to increase coronary conductance in rat hearts, Example 7, n=5 rats
OBSERVATION TYPE: pEC50
The value called pEC50 is obtained by taking minus log10 of the concentration in mol/L.

Need pEC50, item CCCCCn1cc(-c2nc(N)c3ncn([C@@H]4O[C@H](CO)[C@@H](O)[C@H]4O)c3n2)cn1
7.16

###

- SYSTEM NAME: A2A AdoR (Rattus norvegicus, UniProt P30543)
- ASSAY TEXT: Increase of coronary conductance in rat isolated perfused hearts
- MEASUREMENT PARAMETERS: Potency (EC50) to increase coronary conductance, Rat, rat isolated perfused hearts, Table 3
OBSERVATION TYPE: EC50 (µM)
# number only, unit µM dropped from output

What measured EC50 goes with CCCCCn1cc(-c2nc(N)c3ncn([C@@H]4O[C@H](CO)[C@@H](O)[C@H]4O)c3n2)cn1 ?
0.0679

###

- SYSTEM NAME: UniProt P29274
- Sequence (P29274 whole entry): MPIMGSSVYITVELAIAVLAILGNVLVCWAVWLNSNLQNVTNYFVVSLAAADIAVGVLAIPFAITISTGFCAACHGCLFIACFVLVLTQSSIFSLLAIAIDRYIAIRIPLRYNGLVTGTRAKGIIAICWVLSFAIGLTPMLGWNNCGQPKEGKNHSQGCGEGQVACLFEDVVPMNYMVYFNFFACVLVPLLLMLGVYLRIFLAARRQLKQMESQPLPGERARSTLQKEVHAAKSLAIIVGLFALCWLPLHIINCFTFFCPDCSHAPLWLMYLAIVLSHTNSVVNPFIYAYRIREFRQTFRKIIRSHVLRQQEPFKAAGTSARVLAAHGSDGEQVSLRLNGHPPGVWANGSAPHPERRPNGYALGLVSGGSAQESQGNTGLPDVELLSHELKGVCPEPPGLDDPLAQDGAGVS
- ASSAY TEXT: Competition binding, [3H]ZM241385 binding sites on HEK-hA2AAR cell membranes
- MEASUREMENT PARAMETERS: Binding Affinity pKi ± SEM, HEK-hA2AAR Cells, [3H]ZM241385, Gpp(NH)p 100 μM
OBSERVATION TYPE: Ki
Answer shape: numeric part, then the unit.

// returns reported Ki for input CCCCCn1cc(-c2nc(N)c3ncn([C@@H]4O[C@H](CO)[C@@H](O)[C@H]4O)c3n2)cn1
2880 nM

###

- SYSTEM NAME: A2A AdoR (Rattus norvegicus)
- ASSAY TEXT: Increase of coronary conductance in rat isolated perfused hearts
OBSERVATION TYPE: EC50 (nM)
Answer in nM, number only, no unit symbol.

Lab note: need EC50 with A2A AdoR (Rattus norvegicus) for entry Nc1nc(N/N=C/C2CCCCC2)nc2c1ncn2[C@@H]1O[C@H](CO)[C@@H](O)[C@H]1O [WRC-0470, reference compound] , please look it up.
0.6

###

- SYSTEM NAME: UniProt P29274
- ASSAY TEXT: Competition binding, [3H]ZM241385 binding sites on HEK-hA2AAR cell membranes
- MEASUREMENT PARAMETERS: Binding Affinity Ki, HEK-hA2AAR Cells
OBSERVATION TYPE: pKi
Scale explanation: pKi corresponds to minus log10 of a concentration expressed in moles per litre.

Reported pKi for Nc1nc(-c2cnn(Cc3ccccc3)c2)nc2c1ncn2[C@@H]1O[C@H](CO)[C@@H](O)[C@H]1O [Compound 12] : what is it?
4.86

###

- SYSTEM NAME: A2A receptor (Sus scrofa)
- ASSAY TEXT: Affinity for the A2A receptor in a pig striatum membrane prep (displacement of tritiated ZM 241385)
- Type: binding
OBSERVATION TYPE: pKi
Bear in mind: pKi is minus log10 of a mol/L concentration; give just that figure.

What value of pKi has been recorded for this entry: Nc1nc(-c2cnn(Cc3ccccc3)c2)nc2c1ncn2[C@@H]1O[C@H](CO)[C@@H](O)[C@H]1O
5.18

###

- SYSTEM NAME: A2A AdoR (Cavia porcellus)
- Sequence (P46616 whole entry, the tested form may be a part): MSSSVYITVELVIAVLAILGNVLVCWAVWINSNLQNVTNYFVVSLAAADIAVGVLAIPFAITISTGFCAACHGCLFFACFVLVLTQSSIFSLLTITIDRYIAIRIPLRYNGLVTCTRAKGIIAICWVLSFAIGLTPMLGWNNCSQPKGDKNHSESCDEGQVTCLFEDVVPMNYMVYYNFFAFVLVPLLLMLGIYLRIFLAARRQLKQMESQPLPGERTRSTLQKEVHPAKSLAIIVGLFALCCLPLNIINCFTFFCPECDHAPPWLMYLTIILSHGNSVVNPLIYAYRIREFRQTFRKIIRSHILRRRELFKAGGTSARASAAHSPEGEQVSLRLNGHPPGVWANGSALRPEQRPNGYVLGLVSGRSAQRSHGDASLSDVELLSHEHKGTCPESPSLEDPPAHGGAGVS
- ASSAY TEXT: Increase of coronary conductance in guinea pig isolated perfused hearts
In this section, each of the molecules is paired with its reported EC50.
Please give the number followed by its unit.

What value of measured EC50 is listed for Nc1nc(N/N=C/C2CCCCC2)nc2c1ncn2[C@@H]1O[C@H](CO)[C@@H](O)[C@H]1O [WRC-0470, reference compound] ?
2.4 nM

What about CCCCCn1cc(-c2nc(N)c3ncn([C@@H]4O[C@H](CO)[C@@H](O)[C@H]4O)c3n2)cn1 [Compound 18] ?
203 nM

###

- SYSTEM NAME: A2A receptor (Sus scrofa, UniProt K9IW67)
- ASSAY TEXT: Affinity for the A2A receptor in a pig striatum membrane prep (displacement of tritiated ZM 241385)
- Format: binding
- MEASUREMENT PARAMETERS: pig striatal membranes, tritiated ZM 241385 2 nM, 23 C 2 h; read-out: A2a Ki
The following compounds are shown together with reported Ki values.

COMPOUND	Ki
CC(C)n1cc(-c2nc(N)c3ncn([C@@H]4O[C@H](CO)[C@@H](O)[C@H]4O)c3n2)cn1 [Compound 20]	~10 µM
Cn1cc(-c2nc(N)c3ncn([C@@H]4O[C@H](CO)[C@@H](O)[C@H]4O)c3n2)cn1 [Compound 19]	> 10 µM

--- query ---
Param item = Nc1nc(-c2cn[nH]c2)nc2c1ncn2[C@@H]1O[C@H](CO)[C@@H](O)[C@H]1O [Compound 23] ; retrieve measured Ki.
> 100 µM
